test system: 323965-272-R-J2-PDC complex spheroid growth, % test/control; assay: Anticancer human tumor 323965-272-R-J2-PDC patient-derived pancreatic carcinoma cell line growth inhibition [Asc]; conditions: second compound 0.316 µM; first compound 0.316 µM; active compounds read low
Reported viability, T/C by item:
Measure name: viability, T/C (%)

# Compound, Measure name, Recorded result
measured = [
    ("CCN1CCN(Cc2ccc(Nc3ncc(F)c(-c4cc(F)c5nc(C)n(C(C)C)c5c4)n3)nc2)CC1 + CNC(C)C(=O)NC1CN(S(=O)(=O)c2cccc(S(=O)(=O)N3CCC4CCC(C(=O)NC(c5ccccc5)c5ccccc5)N4C(=O)C(NC(=O)C(C)NC)C3)c2)CCC2CCC(C(=O)NC(c3ccccc3)c3ccccc3)N2C1=O", "viability, T/C", 70.6),
    ("C=C(F)C(=O)N1CCN(c2nc(OCC3CCCN3C)nc3c2CCN(c2cccc4cccc(Cl)c24)C3)CC1CC#N (stereo not drawn) + CNC(C)C(=O)NC1CN(S(=O)(=O)c2cccc(S(=O)(=O)N3CCC4CCC(C(=O)NC(c5ccccc5)c5ccccc5)N4C(=O)C(NC(=O)C(C)NC)C3)c2)CCC2CCC(C(=O)NC(c3ccccc3)c3ccccc3)N2C1=O", "viability, T/C", 59.5),
    ("C#Cc1c(F)ccc2cc(O)cc(-c3ncc4c(N5CC6CCC(C5)N6)nc(OCC56CCCN5CC(F)C6)nc4c3F)c12 (stereo not drawn) + Cc1c(S(C)(=O)=O)c(-c2cc(F)cc(N3CCN(c4ccc(NS(=O)(=O)c5ccc(NC(CCN6CCC(C(=O)OCCCP(=O)(O)O)CC6)CSc6ccccc6)c(S(=O)(=O)C(F)(F)F)c5)cc4)CC3)c2)c(-c2ccc(Cl)cc2)n1C(C)C", "viability, T/C", 98.2),
]

---

Reported viability, T/C by item:
test system: 323965-272-R-J2-PDC complex spheroid growth, % test/control; assay: Anticancer human tumor 323965-272-R-J2-PDC cell line growth inhibition [Asc]; settings: second compound 0.949 µM; first compound 0.316 µM; active compounds read low
Measure name: viability, T/C (%)

# Molecule, Recorded result
records = [
    ("O=C(c1cc(Cc2n[nH]c(=O)c3ccccc23)ccc1F)N1CCN(C(=O)C2CC2)CC1 + CCN1C(C(=O)NC23CCC(C(=O)O)(CC2)CC3)C(c2cccc(Cl)c2F)C2(C(=O)Nc3cc(Cl)ccc32)C12CCCCC2", 122),
    ("C#Cc1c(F)ccc2cc(O)cc(-c3ncc4c(N5CC6CCC(C5)N6)nc(OCC56CCCN5CC(F)C6)nc4c3F)c12 (configuration not stated) + CCN1C(C(=O)NC23CCC(C(=O)O)(CC2)CC3)C(c2cccc(Cl)c2F)C2(C(=O)Nc3cc(Cl)ccc32)C12CCCCC2", 102),
]

---

tested on: 323965-272-R-J2-PDC complex spheroid growth, % test/control; assay: Anticancer human tumor 323965-272-R-J2-PDC cell line growth inhibition [Asc]; conditions: second compound 1 µM; first compound 1 µM; active = viability on the fitted dose curve at most 10% of control; inactive = the rest;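 further: compound exposure lasted 7 days starting three days after spheroid seeding; 100% = DMSO vehicle control wells with viability set relative to vehicle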
Outcomes: active, inactive

# Molecule, Label value
records = [
    ("CCN1CCN(Cc2ccc(Nc3ncc(F)c(-c4cc(F)c5nc(C)n(C(C)C)c5c4)n3)nc2)CC1 + CNC(C)C(=O)NC1CN(S(=O)(=O)c2cccc(S(=O)(=O)N3CCC4CCC(C(=O)NC(c5ccccc5)c5ccccc5)N4C(=O)C(NC(=O)C(C)NC)C3)c2)CCC2CCC(C(=O)NC(c3ccccc3)c3ccccc3)N2C1=O", "inactive"),
    ("O=C(c1cc(Cc2n[nH]c(=O)c3ccccc23)ccc1F)N1CCN(C(=O)C2CC2)CC1 + CNC(C)C(=O)NC1CN(S(=O)(=O)c2cccc(S(=O)(=O)N3CCC4CCC(C(=O)NC(c5ccccc5)c5ccccc5)N4C(=O)C(NC(=O)C(C)NC)C3)c2)CCC2CCC(C(=O)NC(c3ccccc3)c3ccccc3)N2C1=O", "inactive"),
    ("C=CC(=O)N1CCN(c2nc(=O)n(-c3c(C)ccnc3C(C)C)c3nc(-c4c(O)cccc4F)c(F)cc23)C(C)C1 (configuration not stated) + CNC(C)C(=O)NC1CN(S(=O)(=O)c2cccc(S(=O)(=O)N3CCC4CCC(C(=O)NC(c5ccccc5)c5ccccc5)N4C(=O)C(NC(=O)C(C)NC)C3)c2)CCC2CCC(C(=O)NC(c3ccccc3)c3ccccc3)N2C1=O", "inactive"),
    ("C=C(F)C(=O)N1CCN(c2nc(OCC3CCCN3C)nc3c2CCN(c2cccc4cccc(Cl)c24)C3)CC1CC#N (configuration not stated) + CNC(C)C(=O)NC1CN(S(=O)(=O)c2cccc(S(=O)(=O)N3CCC4CCC(C(=O)NC(c5ccccc5)c5ccccc5)N4C(=O)C(NC(=O)C(C)NC)C3)c2)CCC2CCC(C(=O)NC(c3ccccc3)c3ccccc3)N2C1=O", "inactive"),
    ("COc1c(OCCCN2CCOCC2)ccc2c3n(c(=NC(=O)c4cnc(N)nc4)nc12)CCN3 + CNC(C)C(=O)NC1CN(S(=O)(=O)c2cccc(S(=O)(=O)N3CCC4CCC(C(=O)NC(c5ccccc5)c5ccccc5)N4C(=O)C(NC(=O)C(C)NC)C3)c2)CCC2CCC(C(=O)NC(c3ccccc3)c3ccccc3)N2C1=O", "inactive"),
    ("C=C(F)C(=O)N1CCN(c2nc(OCC3CCCN3C)nc3c2CCN(c2cccc4cccc(Cl)c24)C3)CC1CC#N (configuration not stated) + Cc1c(S(C)(=O)=O)c(-c2cc(F)cc(N3CCN(c4ccc(NS(=O)(=O)c5ccc(NC(CCN6CCC(C(=O)OCCCP(=O)(O)O)CC6)CSc6ccccc6)c(S(=O)(=O)C(F)(F)F)c5)cc4)CC3)c2)c(-c2ccc(Cl)cc2)n1C(C)C", "inactive"),
    ("O=C(c1ccc(F)c(F)c1Nc1ccc(I)cc1F)N1CC(O)([C@@H]2CCCCN2)C1 + Cc1c(S(C)(=O)=O)c(-c2cc(F)cc(N3CCN(c4ccc(NS(=O)(=O)c5ccc(NC(CCN6CCC(C(=O)OCCCP(=O)(O)O)CC6)CSc6ccccc6)c(S(=O)(=O)C(F)(F)F)c5)cc4)CC3)c2)c(-c2ccc(Cl)cc2)n1C(C)C", "active"),
]

---

Reported viability, T/C by item:
system: 323965-272-R-J2-PDC complex spheroid growth, % test/control; assay: Anticancer human tumor 323965-272-R-J2-PDC cell line growth inhibition [Asc]; settings: second compound 3 µM; first compound 0.0316 µM; active compounds read low;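 further: compound exposure lasted 7 days starting three days after spheroid seeding; 100% = DMSO vehicle control wells with viability set relative to vehicle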
Measure name: viability, T/C

# Molecule, Measure name, Recorded result
measured = [
    ("O=C(c1cc(Cc2n[nH]c(=O)c3ccccc23)ccc1F)N1CCN(C(=O)C2CC2)CC1 + CCN1C(C(=O)NC23CCC(C(=O)O)(CC2)CC3)C(c2cccc(Cl)c2F)C2(C(=O)Nc3cc(Cl)ccc32)C12CCCCC2", "viability, T/C", "102%"),
    ("NC1CCC(NC2CC2c2ccccc2)CC1 (stereo not drawn) + CCN1C(C(=O)NC23CCC(C(=O)O)(CC2)CC3)C(c2cccc(Cl)c2F)C2(C(=O)Nc3cc(Cl)ccc32)C12CCCCC2", "viability, T/C", "96.4%"),
    ("COc1c(OCCCN2CCOCC2)ccc2c3n(c(=NC(=O)c4cnc(N)nc4)nc12)CCN3 + CCN1C(C(=O)NC23CCC(C(=O)O)(CC2)CC3)C(c2cccc(Cl)c2F)C2(C(=O)Nc3cc(Cl)ccc32)C12CCCCC2", "viability, T/C", "63.9%"),
]

---

system: 323965-272-R-J2-PDC complex spheroid growth, % test/control; test: Anticancer human tumor 323965-272-R-J2-PDC cell line growth inhibition [Asc]; conditions: second compound 1 µM; first compound 1 µM; active compounds read low;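 further: compound exposure lasted 7 days starting three days after spheroid seeding; 100% = DMSO vehicle control wells with viability set relative to vehicle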
Measure name: viability, T/C

# Compound, Measure name, Recorded result
rows = [
    ("CCN1CCN(Cc2ccc(Nc3ncc(F)c(-c4cc(F)c5nc(C)n(C(C)C)c5c4)n3)nc2)CC1 + Cc1c(S(C)(=O)=O)c(-c2cc(F)cc(N3CCN(c4ccc(NS(=O)(=O)c5ccc(NC(CCN6CCC(C(=O)OCCCP(=O)(O)O)CC6)CSc6ccccc6)c(S(=O)(=O)C(F)(F)F)c5)cc4)CC3)c2)c(-c2ccc(Cl)cc2)n1C(C)C", "viability, T/C", "70.3%"),
    ("O=C(c1cc(Cc2n[nH]c(=O)c3ccccc23)ccc1F)N1CCN(C(=O)C2CC2)CC1 + Cc1c(S(C)(=O)=O)c(-c2cc(F)cc(N3CCN(c4ccc(NS(=O)(=O)c5ccc(NC(CCN6CCC(C(=O)OCCCP(=O)(O)O)CC6)CSc6ccccc6)c(S(=O)(=O)C(F)(F)F)c5)cc4)CC3)c2)c(-c2ccc(Cl)cc2)n1C(C)C", "viability, T/C", "84.2%"),
]

---

Reported viability, T/C by item:
tested on: 323965-272-R-J2-PDC complex spheroid growth, % test/control; test: Anticancer human tumor 323965-272-R-J2-PDC cell line growth inhibition [Asc]; conditions: second compound 0.0949 µM; first compound 0.1 µM; active compounds read low;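 further: compound exposure lasted 7 days starting three days after spheroid seeding; 100% = DMSO vehicle control wells with viability set relative to vehicle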

# Molecule, viability, T/C
data = [
    ("CCN1CCN(Cc2ccc(Nc3ncc(F)c(-c4cc(F)c5nc(C)n(C(C)C)c5c4)n3)nc2)CC1 + CCN1C(C(=O)NC23CCC(C(=O)O)(CC2)CC3)C(c2cccc(Cl)c2F)C2(C(=O)Nc3cc(Cl)ccc32)C12CCCCC2", "80%"),
    ("O=C(c1ccc(F)c(F)c1Nc1ccc(I)cc1F)N1CC(O)([C@@H]2CCCCN2)C1 + CCN1C(C(=O)NC23CCC(C(=O)O)(CC2)CC3)C(c2cccc(Cl)c2F)C2(C(=O)Nc3cc(Cl)ccc32)C12CCCCC2", "55.3%"),
    ("C=C(F)C(=O)N1CCN(c2nc(OCC3CCCN3C)nc3c2CCN(c2cccc4cccc(Cl)c24)C3)CC1CC#N (stereo not drawn) + CCN1C(C(=O)NC23CCC(C(=O)O)(CC2)CC3)C(c2cccc(Cl)c2F)C2(C(=O)Nc3cc(Cl)ccc32)C12CCCCC2", "60%"),
    ("COc1c(OCCCN2CCOCC2)ccc2c3n(c(=NC(=O)c4cnc(N)nc4)nc12)CCN3 + CCN1C(C(=O)NC23CCC(C(=O)O)(CC2)CC3)C(c2cccc(Cl)c2F)C2(C(=O)Nc3cc(Cl)ccc32)C12CCCCC2", "50.7%"),
    ("O=C(c1cc(Cc2n[nH]c(=O)c3ccccc23)ccc1F)N1CCN(C(=O)C2CC2)CC1 + CCN1C(C(=O)NC23CCC(C(=O)O)(CC2)CC3)C(c2cccc(Cl)c2F)C2(C(=O)Nc3cc(Cl)ccc32)C12CCCCC2", "107%"),
    ("NC1CCC(NC2CC2c2ccccc2)CC1 (stereo not drawn) + CCN1C(C(=O)NC23CCC(C(=O)O)(CC2)CC3)C(c2cccc(Cl)c2F)C2(C(=O)Nc3cc(Cl)ccc32)C12CCCCC2", "88.9%"),
    ("Cn1ncnc1[C@H]1c2n[nH]c(=O)c3cc(F)cc(c23)N[C@@H]1c1ccc(F)cc1 + CCN1C(C(=O)NC23CCC(C(=O)O)(CC2)CC3)C(c2cccc(Cl)c2F)C2(C(=O)Nc3cc(Cl)ccc32)C12CCCCC2", "102%"),
    ("C=CC(=O)N1CCN(c2nc(=O)n(-c3c(C)ccnc3C(C)C)c3nc(-c4c(O)cccc4F)c(F)cc23)C(C)C1 (stereo not drawn) + CCN1C(C(=O)NC23CCC(C(=O)O)(CC2)CC3)C(c2cccc(Cl)c2F)C2(C(=O)Nc3cc(Cl)ccc32)C12CCCCC2", "67.2%"),
]
